- Target desc: Endochitinase B1 [D246A] (Aspergillus fumigatus, UniProt Q873X9, D246A)
- Measurement protocol: Enzyme Inhibition Assay
pKd: −log10 of the molar value.
Parameter measured: pKd

Molecule | Parameter measured | Value reported
CC(=O)CCCCn1c(=O)c2c(ncn2C)n(C)c1=O | pKd | 4.21

* * *

- Target desc: Endochitinase B1 [D175A] (Aspergillus fumigatus, UniProt Q873X9, D175A)
- Measurement protocol: Enzyme Inhibition Assay
pKd: −log10 of the molar value.

Molecule | Target desc | pKd
CC(=O)CCCCn1c(=O)c2c(ncn2C)n(C)c1=O | Endochitinase B1 [D175A] (Aspergillus fumigatus, UniProt Q873X9, D175A) | 4.00

* * *

- Target desc: Endochitinase B1 [T138A] (Aspergillus fumigatus, UniProt Q873X9, T138A)
- Measurement protocol: Enzyme Inhibition Assay
Parameter measured: Kd

Molecule | Value reported
CC(=O)CCCCn1c(=O)c2c(ncn2C)n(C)c1=O | 65 µM

* * *

- Target desc: Endochitinase B1 [A217G] (Aspergillus fumigatus, UniProt Q873X9, A217G)
- Measurement protocol: Enzyme Inhibition Assay

Molecule | Unit text | Kd
CC(=O)CCCCn1c(=O)c2c(ncn2C)n(C)c1=O | µM | 77

* * *

- Target desc: Endochitinase B1 [M243A] (Aspergillus fumigatus, UniProt Q873X9, M243A)
- Measurement protocol: Enzyme Inhibition Assay
pKd: −log10 of the molar value.

Molecule | Target desc | pKd
CC(=O)CCCCn1c(=O)c2c(ncn2C)n(C)c1=O | Endochitinase B1 [M243A] (Aspergillus fumigatus, UniProt Q873X9, M243A) | 4.74

* * *

- Target desc: Endochitinase B1 [E322A] (Aspergillus fumigatus, UniProt Q873X9, E322A)
- Measurement protocol: Enzyme Inhibition Assay
Parameter measured: Kd (µM)

Molecule | Value reported
CC(=O)CCCCn1c(=O)c2c(ncn2C)n(C)c1=O | 45
